Origin of measurements: PubChem BioAssay (NCI)

# System: OVCAR-4 ovarian
# EXPERIMENT DESCRIPTION: NCI-60 one-dose screen, 48 h (100 = growth as untreated, 0 = no growth, -100 = all killed)
# EXPERIMENTAL CONTEXT: 10 µM unless noted
This is part of a sample that, as a whole, favours compounds with a hit. Of some 83,000 tested, about 20% had one in any assay.
Label criterion met when growth is at or above 50%; anything below gets criterion not met.

> print(dat)
                                    molecule         class.name
 1  CNC(=O)c1cc(N2CCc3cc(NC(=O)Nc4ccc(Cl)c(C(F)(F)F)c4)ccc32)ccn1      criterion met
 2  O=C1C(c2ccccc2)=C(N2CCc3ccccc32)OC1(Cl)Cl      criterion met
 3  Nc1nc(-c2cccc([N+](=O)[O-])c2)c(N=Nc2cccc([N+](=O)[O-])c2)s1  criterion not met
 4  CCCSc1nc(Nc2ccc(/C(C)=N\NC(N)=S)cc2)c(C#N)c(-c2ccccc2)n1      criterion met
 5  CN1CCN(c2ccc(/C=N/Nc3nc4ccccc4c(=O)n3-c3ccccc3)cc2)CC1      criterion met
 6  O=C(NCCn1ccnc1)c1ccc(-c2nc3ccc4[nH]ncc4c3c3c2CCCC3)cc1      criterion met
 7  NS(=O)(=O)c1ccc(Nc2nc(N/N=C/c3ccc(Cl)cc3)nc(Nc3ccccc3)n2)cc1      criterion met
 8  Fc1ccc(-c2cc3nc(C(Cl)Cl)nc(-c4ccco4)n3n2)cc1  criterion not met
 9  Cc1nn(-c2ccccc2)c2ncnc(N/N=C/c3ccccc3O)c12  criterion not met
10  COc1cc(-c2nn(C(C)(C)C)cc2-c2ccnc(NCCCNS(=O)(=O)c3ccc(C)cc3)n2)ccc1Cl      criterion met
11  O=C(NNc1nc2cc(F)ccc2n2c(CN3CCC(O)C3)ccc12)c1cnccn1 (stereo not given)  criterion not met
12      Cc1ccc(C2=Nn3c(nnc3-c3ccccc3)SC2)cc1      criterion met
13  c1ccc(C(c2nc3ncncc3[nH]2)N2CSc3nc4ccccc4n3C2)cc1 (stereo not given)      criterion met
14  CCNC(=O)N1CCc2cc(OC)c(OCCc3ccc(OC)nc3)cc2C1c1ccc(OC)cc1C (stereo not given)      criterion met
15  CCN(CC)c1ccc2c(c1)Oc1nc(N)c(C#N)c(N)c1C2Sc1ccc(F)cc1 (stereo not given)  criterion not met
16  COc1ccc(-n2c(SCc3nnc(NC(=O)c4ccc(Br)cc4)s3)nc3cc(OC)c(OC)cc3c2=O)cc1      criterion met
17  CCOC(=O)C1=NNC(c2ccc(Cl)cc2)C1C(=O)N1C(=S)NC(=O)C1CC(C)C (stereo not given)      criterion met
18  NC(=O)c1c(NC(=O)c2ccccc2C(F)(F)F)sc2c1CCC(=O)C2  criterion not met
19  COc1ccc(C(=O)CSc2nc3c(c(Nc4ccc(S(N)(=O)=O)cc4)n2)CCCC3)cc1      criterion met
20  COc1c(N2CC3CCCNC3C2)c(F)cc2c(=O)c(C(=O)N/N=C/c3c[nH]c4ccccc34)cn(C3CC3)c12 (stereo not given)      criterion met
21        CCCCNNC(=O)c1ccc(-c2cccc(F)c2F)cc1  criterion not met
22  N#Cc1cn(Cc2ccc(Cl)cc2Cl)c(C(=O)c2ccc(Br)cc2)c1N      criterion met
23  CCOC(=O)c1c(Nc2ccccc2)nn2c(-c3ccc(OC)cc3)ccnc12      criterion met
